tested on: CCRIS mutagenicity, Ames/micronucleus/aberration tests; test: CCRIS mutagenicity studies; conditions: Test System: UDS RODENT HEPATOCYTES; Strain/Indicator: THY INCORP (NON-S-PHASE); Metabolic Activation: NONE; Method: AUTORADIOGRAPHY
Activity calls are given as the source filed them. No rule for the calls is given here.
Outcome (select one): YES for active, NO for inactive

Solved cases below.
CCc1ccccc1N	NO
Cc1ccnc2ccccc12	YES
Cc1ccc(Cl)cc1N	NO

Query: Recorded test call requested for `Fc1cnc2ccccc2c1`
Result: NO

Query: Recorded test outcome, item `Nc1ccc(Cl)cc1N`
Result: YES

* * *

tested on: CCRIS mutagenicity, Ames/micronucleus/aberration tests; test: CCRIS mutagenicity studies; conditions: Test System: AMES SALMONELLA TYPHIMURIUM; Strain/Indicator: TA102; Metabolic Activation: NONE; Method: STANDARD PLATE
Active and inactive are the calls of the source. How the calls were made is not given here.
Respond only with the outcome that fits, drawn from 1 (yes) = active, 0 (no) = inactive

Below are worked cases with known answers.
CN(N=O)C(=O)c1c(N(C)C(=O)OC(C)(C)C)ncn1C	0 (no)
COc1ccc(C(=O)N2CCN(c3ccc4c(c3)CCC(=O)N4)CC2)cc1OC	0 (no)
O=C1NC(=O)C2CC=CCC12 (centres undefined)	0 (no)
Oc1ccc(O)cc1	1 (yes)
CC1(C)CC(O)CC(C)(C)N1[O]	0 (no)

Query: Recorded test outcome, item `O=C(O)COc1cc(Cl)c(Cl)cc1Cl`
Result: 0 (no)

Query: In this assay, the call recorded for `COP(=S)(OC)Oc1ccc(Sc2ccc(OP(=S)(OC)OC)cc2)cc1` was what?
Result: 0 (no)

Query: # lookup: test call for `O=C([O-])c1cccnc1Nc1cccc(C(F)(F)F)c1.O=C([O-])c1cccnc1Nc1cccc(C(F)(F)F)c1.OCc1cccnc1.OCc1cccnc1.[Cu+2]`
Result: 0 (no)

Query: Call for entry `CC(=O)O[C@H]1C(=O)[C@@]2(C)[C@H]([C@H](OC(=O)c3ccccc3)[C@]3(O)C[C@H](OC(=O)[C@H](O)[C@@H](NC(=O)c4ccccc4)c4ccccc4)C(C)=C1C3(C)C)[C@]1(OC(C)=O)CO[C@@H]1C[C@@H]2O` :
Result: 0 (no)

FYI, the data here is from PubChem BioAssay AID1259407.
